Reported MIC values for the following compounds.
- System: Streptococcus pneumoniae
- EXPERIMENT_SUMMARY: Antimicrobial activity against tetracycline-resistant Streptococcus pneumoniae isolate 160 harboring tetM gene by CLSI dilution method
- Type: functional
REPORTED_METRIC: MIC (µg/mL)

1. CN(C)[C@@H]1C(O)=C(C(N)=O)C(=O)[C@@]2(O)C(O)=C3C(=O)c4c(cc5ccc(F)cc5c4O)C[C@H]3C[C@@H]12    8
2. CN(C)[C@@H]1C(O)=C(C(N)=O)C(=O)[C@@]2(O)C(O)=C3C(=O)c4c(cc5ccc(CN6CC(C#N)C6)cc5c4O)C[C@H]3C[C@@H]12    1
3. CN(C)[C@@H]1C(O)=C(C(N)=O)C(=O)[C@@]2(O)C(O)=C3C(=O)c4c(c(F)c5ccc(CN6CCCC6)cc5c4O)C[C@H]3C[C@@H]12    0.0313
4. CN(C)[C@@H]1C(O)=C(C(N)=O)C(=O)[C@@]2(O)C(O)=C3C(=O)c4c(cc5ccc(CN6CC(F)C6)cc5c4O)C[C@H]3C[C@@H]12    0.25
5. CC(C)CNCc1ccc2cc3c(c(O)c2c1)C(=O)C1=C(O)[C@]2(O)C(=O)C(C(N)=O)=C(O)[C@@H](N(C)C)[C@@H]2C[C@@H]1C3    0.25
6. CN(C)[C@@H]1C(O)=C(C(N)=O)C(=O)[C@@]2(O)C(O)=C3C(=O)c4c(cc5c(CNC6CC6)cccc5c4O)C[C@H]3C[C@@H]12    4
7. CN(C)[C@@H]1C(O)=C(C(N)=O)C(=O)[C@@]2(O)C(O)=C3C(=O)c4c(cc5ccc(CN6CC(F)(F)C6)cc5c4O)C[C@H]3C[C@@H]12    4
8. CNCc1ccc2cc3c(c(O)c2c1)C(=O)C1=C(O)[C@]2(O)C(=O)C(C(N)=O)=C(O)[C@@H](N(C)C)[C@@H]2C[C@@H]1C3    1
9. CN(C)CCOc1c2c(c(O)c3cc(CN4CCC4)ccc13)C(=O)C1=C(O)[C@]3(O)C(=O)C(C(N)=O)=C(O)[C@@H](N(C)C)[C@@H]3C[C@@H]1C2    2
10. CNC(=O)Oc1c2c(c(O)c3cc(CN4CCC4)ccc13)C(=O)C1=C(O)[C@]3(O)C(=O)C(C(N)=O)=C(O)[C@@H](N(C)C)[C@@H]3C[C@@H]1C2    4
11. COc1cccc2c(O)c3c(cc12)C[C@H]1C[C@H]2[C@H](N(C)C)C(O)=C(C(N)=O)C(=O)[C@@]2(O)C(O)=C1C3=O    4
12. COc1c2c(c(O)c3cc(F)ccc13)C(=O)C1=C(O)[C@]3(O)C(=O)C(C(N)=O)=C(O)[C@@H](N(C)C)[C@@H]3C[C@@H]1C2    8

----------
- Test system: Enterococcus faecalis
- EXPERIMENT_SUMMARY: Antimicrobial activity against tetracycline-resistant Enterococcus faecalis isolate 159 harboring […] gene by CLSI dilution method
- Type: functional
Please note: MIC exactly at 2 µg/mL is n. Only values below 2 µg/mL get y.

1. CN(C)[C@@H]1C(O)=C(C(N)=O)C(=O)[C@@]2(O)C(O)=C3C(=O)c4c(cc5ccc(CN6CC(C#N)C6)cc5c4O)C[C@H]3C[C@@H]12    n
2. CCCNc1c2c(c(O)c3cc(CN4CCC4)ccc13)C(=O)C1=C(O)[C@]3(O)C(=O)C(C(N)=O)=C(O)[C@@H](N(C)C)[C@@H]3C[C@@H]1C2    n
3. CN(C)[C@@H]1C(O)=C(C(N)=O)C(=O)[C@@]2(O)C(O)=C3C(=O)c4c(cc5ccc(F)cc5c4O)C[C@H]3C[C@@H]12    y
4. CN(C)Cc1ccc2c(F)c3c(c(O)c2c1)C(=O)C1=C(O)[C@]2(O)C(=O)C(C(N)=O)=C(O)[C@@H](N(C)C)[C@@H]2C[C@@H]1C3    y
5. CN(C)[C@@H]1C(O)=C(C(N)=O)C(=O)[C@@]2(O)C(O)=C3C(=O)c4c(c(F)c5ccc(CNC(C)(C)C)cc5c4O)C[C@H]3C[C@@H]12    y
6. COCCNCc1ccc2c(N(C)C)c3c(c(O)c2c1)C(=O)C1=C(O)[C@]2(O)C(=O)C(C(N)=O)=C(O)[C@@H](N(C)C)[C@@H]2C[C@@H]1C3    n

----------
Each item that follows carries a reported MIC.
- Tested on: Enterobacter cloacae
- EXPERIMENT_SUMMARY: Antimicrobial activity against tetracycline-susceptible Enterobacter cloacae isolate 108 by CLSI dilution method
- Format: functional
REPORTED_METRIC: MIC (µg/mL)

1) CN(C)c1c2c(c(O)c3cc(CN4CCC4)ccc13)C(=O)C1=C(O)[C@]3(O)C(=O)C(C(N)=O)=C(O)[C@@H](N(C)C)[C@@H]3C[C@@H]1C2    8
2) CN(C)Cc1ccc2c(F)c3c(c(O)c2c1)C(=O)C1=C(O)[C@]2(O)C(=O)C(C(N)=O)=C(O)[C@@H](N(C)C)[C@@H]2C[C@@H]1C3    4
3) CN(C)[C@@H]1C(O)=C(C(N)=O)C(=O)[C@@]2(O)C(O)=C3C(=O)c4c(cc5ccc(CN6CCCC6)cc5c4O)C[C@H]3C[C@@H]12    4
4) CN(C)[C@@H]1C(O)=C(C(N)=O)C(=O)[C@@]2(O)C(O)=C3C(=O)c4c(cc5ccc(CN6CC(F)C6)cc5c4O)C[C@H]3C[C@@H]12    8
5) CCCNCc1ccc2c(OC)c3c(c(O)c2c1)C(=O)C1=C(O)[C@]2(O)C(=O)C(C(N)=O)=C(O)[C@@H](N(C)C)[C@@H]2C[C@@H]1C3    1
6) CN(C)[C@@H]1C(O)=C(C(N)=O)C(=O)[C@@]2(O)C(O)=C3C(=O)c4c(c(F)c5ccc(CN6CCC6)cc5c4O)C[C@H]3C[C@@H]12    2
7) CN(C)[C@@H]1C(O)=C(C(N)=O)C(=O)[C@@]2(O)C(O)=C3C(=O)c4c(c(F)c5ccc(CN6CC(F)C6)cc5c4O)C[C@H]3C[C@@H]12    8

----------
- System: Klebsiella pneumoniae
- EXPERIMENT_SUMMARY: Antimicrobial activity against tetracycline-resistant Klebsiella pneumoniae isolate 153 harboring tetA gene by CLSI dilution method
- Assay type: functional
// reported MIC for each item listed
REPORTED_METRIC: MIC

1) CN(C)[C@@H]1C(O)=C(C(N)=O)C(=O)[C@@]2(O)C(O)=C3C(=O)c4c(cc5c(CN6CCC6)cccc5c4O)C[C@H]3C[C@@H]12    > 32 µg/mL
2) CN(C)[C@@H]1C(O)=C(C(N)=O)C(=O)[C@@]2(O)C(O)=C3C(=O)c4c(cc5ccc(-c6ccccc6)cc5c4O)C[C@H]3C[C@@H]12    > 32 µg/mL
3) COC1CN(Cc2ccc3cc4c(c(O)c3c2)C(=O)C2=C(O)[C@]3(O)C(=O)C(C(N)=O)=C(O)[C@@H](N(C)C)[C@@H]3C[C@@H]2C4)C1    16 µg/mL

----------
- Tested on: Pseudomonas aeruginosa
- EXPERIMENT_SUMMARY: Antimicrobial activity against tetracycline-susceptible Pseudomonas aeruginosa isolate 111 by CLSI dilution method
- Assay type: functional
REPORTED_METRIC: MIC

1) CN(C)[C@@H]1C(O)=C(C(N)=O)C(=O)[C@@]2(O)C(O)=C3C(=O)c4c(cc5c(CN6CCC6)cccc5c4O)C[C@H]3C[C@@H]12    > 32 µg/mL
2) CN(C)Cc1ccc2c(N(C)C)c3c(c(O)c2c1)C(=O)C1=C(O)[C@]2(O)C(=O)C(C(N)=O)=C(O)[C@@H](N(C)C)[C@@H]2C[C@@H]1C3    > 32 µg/mL
3) CN(Cc1ccc2cc3c(c(O)c2c1)C(=O)C1=C(O)[C@]2(O)C(=O)C(C(N)=O)=C(O)[C@@H](N(C)C)[C@@H]2C[C@@H]1C3)c1ccccc1    > 32 µg/mL
4) CN(C)Cc1ccc2c(F)c3c(c(O)c2c1)C(=O)C1=C(O)[C@]2(O)C(=O)C(C(N)=O)=C(O)[C@@H](N(C)C)[C@@H]2C[C@@H]1C3    32 µg/mL
5) CCNCc1ccc2c(F)c3c(c(O)c2c1)C(=O)C1=C(O)[C@]2(O)C(=O)C(C(N)=O)=C(O)[C@@H](N(C)C)[C@@H]2C[C@@H]1C3    16 µg/mL
6) CN(C)c1cc(NC(=O)CNC(C)(C)C)c(O)c2c1C[C@H]1C[C@H]3[C@H](N(C)C)C(O)=C(C(N)=O)C(=O)[C@@]3(O)C(O)=C1C2=O    8 µg/mL
7) CN(C)c1c2c(c(O)c3cc(CN4CCC4)ccc13)C(=O)C1=C(O)[C@]3(O)C(=O)C(C(N)=O)=C(O)[C@@H](N(C)C)[C@@H]3C[C@@H]1C2    32 µg/mL
8) CC(=O)NC1CN(Cc2ccc3cc4c(c(O)c3c2)C(=O)C2=C(O)[C@]3(O)C(=O)C(C(N)=O)=C(O)[C@@H](N(C)C)[C@@H]3C[C@@H]2C4)C1    > 32 µg/mL
9) CN(C)C1CN(Cc2ccc3cc4c(c(O)c3c2)C(=O)C2=C(O)[C@]3(O)C(=O)C(C(N)=O)=C(O)[C@@H](N(C)C)[C@@H]3C[C@@H]2C4)C1    > 32 µg/mL
10) CN(C)[C@@H]1C(O)=C(C(N)=O)C(=O)[C@@]2(O)C(O)=C3C(=O)c4c(cc5ccc(-c6ccccc6)cc5c4O)C[C@H]3C[C@@H]12    > 32 µg/mL
11) CN(C)c1ccc2c(O)c3c(cc2c1)C[C@H]1C[C@H]2[C@H](N(C)C)C(O)=C(C(N)=O)C(=O)[C@@]2(O)C(O)=C1C3=O    > 32 µg/mL
12) CNCc1ccc2cc3c(c(O)c2c1)C(=O)C1=C(O)[C@]2(O)C(=O)C(C(N)=O)=C(O)[C@@H](N(C)C)[C@@H]2C[C@@H]1C3    16 µg/mL
13) COC1CN(Cc2ccc3cc4c(c(O)c3c2)C(=O)C2=C(O)[C@]3(O)C(=O)C(C(N)=O)=C(O)[C@@H](N(C)C)[C@@H]3C[C@@H]2C4)C1    > 32 µg/mL
14) CN(C)[C@@H]1C(O)=C(C(N)=O)C(=O)[C@@]2(O)C(O)=C3C(=O)c4c(cc5ccc(CN6CCCCC6)cc5c4O)C[C@H]3C[C@@H]12    > 32 µg/mL
15) CN(C)[C@@H]1C(O)=C(C(N)=O)C(=O)[C@@]2(O)C(O)=C3C(=O)c4c(cc5ccc(CN(C)S(C)(=O)=O)cc5c4O)C[C@H]3C[C@@H]12    > 32 µg/mL
16) CN(C)[C@@H]1C(O)=C(C(N)=O)C(=O)[C@@]2(O)C(O)=C3C(=O)c4c(cc5ccc(CN6CCC6)cc5c4O)C[C@H]3C[C@@H]12    32 µg/mL
17) CNC(=O)Oc1c2c(c(O)c3cc(CN4CCC4)ccc13)C(=O)C1=C(O)[C@]3(O)C(=O)C(C(N)=O)=C(O)[C@@H](N(C)C)[C@@H]3C[C@@H]1C2    > 32 µg/mL
18) CNCc1ccc2c(N(C)C)c3c(c(O)c2c1)C(=O)C1=C(O)[C@]2(O)C(=O)C(C(N)=O)=C(O)[C@@H](N(C)C)[C@@H]2C[C@@H]1C3    > 32 µg/mL
19) COCCNCc1ccc2cc3c(c(O)c2c1)C(=O)C1=C(O)[C@]2(O)C(=O)C(C(N)=O)=C(O)[C@@H](N(C)C)[C@@H]2C[C@@H]1C3    32 µg/mL
20) CN(C)[C@@H]1C(O)=C(C(N)=O)C(=O)[C@@]2(O)C(O)=C3C(=O)c4c(cc5ccc(CN6CC(O)C6)cc5c4O)C[C@H]3C[C@@H]12    32 µg/mL
21) CN(C)[C@@H]1C(O)=C(C(N)=O)C(=O)[C@@]2(O)C(O)=C3C(=O)c4c(c(F)c5ccc(CN6CC(F)C6)cc5c4O)C[C@H]3C[C@@H]12    > 32 µg/mL
22) CN(C)CCOc1c2c(c(O)c3cc(CN4CCC4)ccc13)C(=O)C1=C(O)[C@]3(O)C(=O)C(C(N)=O)=C(O)[C@@H](N(C)C)[C@@H]3C[C@@H]1C2    > 32 µg/mL
23) COc1c2c(c(O)c3cc(CN4CCCC4)ccc13)C(=O)C1=C(O)[C@]3(O)C(=O)C(C(N)=O)=C(O)[C@@H](N(C)C)[C@@H]3C[C@@H]1C2    16 µg/mL

Sourced from ChEMBL document CHEMBL1781932
